tested on: Met; test: Effect of proteasome and lysosome inhibitors on In1B-dependent degradation of Met; type: cell-based, human; details: HeLa cells pre-treated with inhibitor before addition of In1B; anti-Met immunoblot
Measured attribute: effect of inhibitor on In1B-dependent degradation of Met

# Smi, Study system, Recorded result
data = [
    ("CC(C)[C@H](O)[C@@]12NC(=O)[C@H](C)[C@@H]1OC2=O", "Met", "did not inhibit"),
    ("CC[C@H](C)[C@H](NC(=O)[C@H]([C@@H](C)CC)N(C)C(C)=O)C(=O)N[C@H](C(=O)N[C@@H](CC(C)C)C(=O)[C@@]1(C)CO1)[C@@H](C)O", "Met", "did not inhibit"),
]
